Recorded values, source ChEMBL document CHEMBL4390659.

Reported values of inhibition at 72 h, 6.25 ug/ml for individual entries
PROTOCOL_DETAILS: Cytotoxicity against African green monkey Vero cells assessed as cell growth inhibition at 6.25 ug/ml incubated for 72 hrs by MTT assay relative to control
Assay type: cell-based
EXPERIMENTAL_PARAMETERS: chlorocebus sabaeus, read-out: GI

[
  {
    "SMILES_STRING": "N#Cc1ccc(Cn2cc(CN3c4ccccc4Sc4cc(/C=N/NC(=O)c5ccc(F)cc5)ccc43)nn2)cc1",
    "inhibition at 72 h, 6.25 ug/ml": "11.4%"
  },
  {
    "SMILES_STRING": "N#Cc1ccc(Cn2cc(CN3c4ccc(/C=N/NC(=O)c5ccc(F)cc5)cc4Sc4ccc(C(F)(F)F)cc43)nn2)cc1",
    "inhibition at 72 h, 6.25 ug/ml": "8.42%"
  },
  {
    "SMILES_STRING": "N#Cc1ccc(Cn2cc(CN3c4ccccc4Sc4cc(/C=N/NC(=O)c5ccncc5)ccc43)nn2)cc1",
    "inhibition at 72 h, 6.25 ug/ml": "5.13%"
  },
  {
    "SMILES_STRING": "O=[N+]([O-])c1ccc(Cn2cc(CN3c4ccccc4Sc4ccccc43)nn2)cc1",
    "inhibition at 72 h, 6.25 ug/ml": "11.4%"
  },
  {
    "SMILES_STRING": "Cc1ccc(C(=O)N/N=C/c2ccc3c(c2)Sc2ccccc2N3Cc2cn(Cc3ccc(C#N)cc3)nn2)cc1",
    "inhibition at 72 h, 6.25 ug/ml": "10.6%"
  },
  {
    "SMILES_STRING": "N#Cc1ccc(Cn2cc(CN3c4ccccc4Sc4ccccc43)nn2)cc1",
    "inhibition at 72 h, 6.25 ug/ml": "11.1%"
  },
  {
    "SMILES_STRING": "Fc1ccccc1Cn1cc(CN2c3ccccc3Sc3ccccc32)nn1",
    "inhibition at 72 h, 6.25 ug/ml": "3.33%"
  },
  {
    "SMILES_STRING": "N#Cc1ccc(Cn2cc(CN3c4ccc(/C=N/NC(=O)c5ccccc5)cc4Sc4ccc(C(F)(F)F)cc43)nn2)cc1",
    "inhibition at 72 h, 6.25 ug/ml": "12.3%"
  },
  {
    "SMILES_STRING": "N#Cc1ccc(Cn2cc(CN3c4ccc(/C=N/NC(=O)c5ccncc5)cc4Sc4ccc(C(F)(F)F)cc43)nn2)cc1",
    "inhibition at 72 h, 6.25 ug/ml": "7.14%"
  },
  {
    "SMILES_STRING": "N#Cc1ccc(Cn2cc(CN3c4ccccc4Sc4cc(/C=N/NC(=O)c5cccnc5)ccc43)nn2)cc1",
    "inhibition at 72 h, 6.25 ug/ml": "8.42%"
  },
  {
    "SMILES_STRING": "N#Cc1ccc(Cn2cc(CN3c4ccccc4Sc4cc(/C=N/NC(=O)c5ccc([N+](=O)[O-])cc5)ccc43)nn2)cc1",
    "inhibition at 72 h, 6.25 ug/ml": "7.57%"
  },
  {
    "SMILES_STRING": "N#Cc1ccc(Cn2cc(CN3c4ccc(/C=N/NC(=O)c5cccnc5)cc4Sc4ccc(C(F)(F)F)cc43)nn2)cc1",
    "inhibition at 72 h, 6.25 ug/ml": "7.32%"
  },
  {
    "SMILES_STRING": "Cc1ccc(C(=O)N/N=C/c2ccc3c(c2)Sc2ccc(C(F)(F)F)cc2N3Cc2cn(Cc3ccc(C#N)cc3)nn2)cc1",
    "inhibition at 72 h, 6.25 ug/ml": "6.28%"
  },
  {
    "SMILES_STRING": "N#Cc1ccc(Cn2cc(CN3c4ccc(/C=N/NC(=O)c5cnccn5)cc4Sc4ccc(C(F)(F)F)cc43)nn2)cc1",
    "inhibition at 72 h, 6.25 ug/ml": "11.6%"
  },
  {
    "SMILES_STRING": "N#Cc1ccc(Cn2cc(CN3c4ccccc4Sc4ccc(C(F)(F)F)cc43)nn2)cc1",
    "inhibition at 72 h, 6.25 ug/ml": "5%"
  }
]

====

Test system: Staphylococcus aureus
PROTOCOL_DETAILS: Antibacterial activity against Staphylococcus aureus incubated for 24 hrs by agar dilution method
Type: functional
Property: MIC; scope: individual molecules

[
  {
    "SMILES_STRING": "CN1c2ccccc2Sc2cc(/C=N/OCc3cn(Cc4ccccc4F)nn3)ccc21",
    "MIC": "12.5 µg/mL"
  },
  {
    "SMILES_STRING": "N#Cc1ccc(Cn2cc(CN3c4ccc(/C=N/NC(=O)c5ccccc5)cc4Sc4ccc(C(F)(F)F)cc43)nn2)cc1",
    "MIC": "50 µg/mL"
  },
  {
    "SMILES_STRING": "Cc1ccc(Cn2cc(COCc3ccc4c(c3)Sc3ccccc3N4C)nn2)cc1",
    "MIC": "50 µg/mL"
  },
  {
    "SMILES_STRING": "N#Cc1ccc(Cn2cc(CN3c4ccc(/C=N/NC(=O)c5ccc(F)cc5)cc4Sc4ccc(C(F)(F)F)cc43)nn2)cc1",
    "MIC": "6.25 µg/mL"
  },
  {
    "SMILES_STRING": "N#Cc1ccc(Cn2cc(CN3c4ccccc4Sc4cc(/C=N/NC(=O)c5cnccn5)ccc43)nn2)cc1",
    "MIC": "50 µg/mL"
  },
  {
    "SMILES_STRING": "c1ccc(Cn2cc(CN3c4ccccc4Sc4ccccc43)nn2)cc1",
    "MIC": "50 µg/mL"
  },
  {
    "SMILES_STRING": "O=C(O)c1cn(C2CC2)c2cc(N3CCNCC3)c(F)cc2c1=O",
    "MIC": "2 µg/mL"
  },
  {
    "SMILES_STRING": "N#Cc1ccc(Cn2cc(CN3c4ccccc4Sc4cc(/C=N/NC(=O)c5ccc([N+](=O)[O-])cc5)ccc43)nn2)cc1",
    "MIC": "25 µg/mL"
  },
  {
    "SMILES_STRING": "Fc1ccccc1Cn1cc(CN2c3ccccc3Sc3ccccc32)nn1",
    "MIC": "12.5 µg/mL"
  },
  {
    "SMILES_STRING": "N#Cc1ccc(Cn2cc(CN3c4ccccc4Sc4cc(/C=N/NC(=O)c5ccccc5)ccc43)nn2)cc1",
    "MIC": "12.5 µg/mL"
  },
  {
    "SMILES_STRING": "COc1ccc(Cn2cc(CN3c4ccccc4Sc4ccccc43)nn2)cc1",
    "MIC": "25 µg/mL"
  },
  {
    "SMILES_STRING": "N#Cc1ccc(Cn2cc(CN3c4ccccc4Sc4cc(/C=N/NC(=O)c5cccnc5)ccc43)nn2)cc1",
    "MIC": "12.5 µg/mL"
  },
  {
    "SMILES_STRING": "CN1c2ccccc2Sc2cc(/C=N/OCc3cn(Cc4ccc([N+](=O)[O-])cc4)nn3)ccc21",
    "MIC": "25 µg/mL"
  }
]
